System: EKVX
Experimental protocol: NCI tumour cell line growth inhibition, 48 h
Calls of active or inactive are those of the source. No stated cut-off is given here; in the data, active = GI50 up to about 1.1 µM and inactive = higher.
Would you mind telling me the reported GI50 of each entry?

Examples with their reported GI50 follow.
CSc1nc(SC)c2c(C)cn(C3OC(C)C(O)C(O)C3O)c2n1 (stereo not given) ... > 100 µM (inactive)
FC(F)(F)c1nc(-c2ccccc2)oc1Sc1nnc(Sc2oc(-c3ccccc3)nc2C(F)(F)F)s1 ... > 47.2 µM (inactive)
CC(N)C(=O)OCN1C(=O)C2C3C=CC(C2C1=O)C1C2C(=O)N(COC(=O)C(C)N)C(=O)C2C31 (stereo not given) ... > 100 µM (inactive)

Hi team, please reply with GI50 for each item in this list.
1. O=c1[nH]ccc(CNC23CC4CC(CC(C4)C2)C3)c1O
2. CSc1c(C(=O)Nc2ccc(Cl)cc2)c(N)n(N)c(=O)c1C#N
3. CN1N=CSC12C(=O)N(c1ccccc1)C(=O)N2c1ccccc1 (stereo not given)
4. CC(=O)c1c2c(cc3c1CC1(Cc4cc5c(cc4C1)C(=O)CCC5)C3)CCCC2 (stereo not given)
5. CCOc1cc(CCNC)c2c(ccc3ccc(OC)c(O)c32)c1OC
6. NCCCNCCCCN1CC1
7. [N-]=[N+]=Nc1ccc(S(=O)(=O)Oc2cc(OS(=O)(=O)c3ccc(N=[N+]=[N-])cc3)cc(OS(=O)(=O)c3ccc(N=[N+]=[N-])cc3)c2)cc1
8. O=c1oc2ccccc2cc1/C=N/N1C(=S)N(c2ccccc2)C(=N\c2ccccc2)/C1=N/c1ccccc1

1. 80.4 µM (inactive)
2. > 100 µM (inactive)
3. > 100 µM (inactive)
4. > 23.8 µM (inactive)
5. 19.3 µM (inactive)
6. 4.61 µM (inactive)
7. > 100 µM (inactive)
8. > 100 µM (inactive)
